Biological target: Neu5Ac(a2-3)Gal(b1-4)GlcNAc(b1-6)[Neu5Ac(a2-3)Gal(b1-3)]GalNAc
Test: glycan array binding signal (z-score within array); higher = stronger binding
Conditions: glycan notation: IUPAC condensed, linker removed
This excerpt belongs to a sample that is enriched for the strongest signals.
recorded_metric: glycan array binding signal (z-score)

binder: CLEC9a (Mus musculus), Q8BRU4 (protein) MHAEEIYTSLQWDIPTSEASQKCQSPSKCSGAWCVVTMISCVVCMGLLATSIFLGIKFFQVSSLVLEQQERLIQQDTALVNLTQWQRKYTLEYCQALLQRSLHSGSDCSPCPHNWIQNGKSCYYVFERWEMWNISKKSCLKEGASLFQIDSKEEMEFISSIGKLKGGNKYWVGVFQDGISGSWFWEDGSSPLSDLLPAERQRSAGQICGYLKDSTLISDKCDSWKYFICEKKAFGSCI
assay_value: -0.1

Now look at this one.
Any idea what its glycan array binding signal (z-score) is? The binder is EUL D1A (Oryza sativa) (protein) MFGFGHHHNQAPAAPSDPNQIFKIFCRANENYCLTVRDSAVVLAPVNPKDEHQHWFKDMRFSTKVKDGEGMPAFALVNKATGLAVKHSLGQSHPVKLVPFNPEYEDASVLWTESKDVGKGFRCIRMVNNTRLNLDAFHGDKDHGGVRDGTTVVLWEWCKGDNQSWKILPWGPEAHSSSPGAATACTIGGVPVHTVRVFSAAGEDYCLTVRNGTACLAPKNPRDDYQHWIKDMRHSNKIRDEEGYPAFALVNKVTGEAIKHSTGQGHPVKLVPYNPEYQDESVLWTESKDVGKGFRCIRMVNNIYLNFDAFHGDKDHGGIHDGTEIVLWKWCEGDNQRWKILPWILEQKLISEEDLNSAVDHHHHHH
2.69
